# TEST SYSTEM: wild type LRRK2 overexpressed in recombinant HEK-293T cells (Homo sapiens)
# Sequence (Q5S007 whole entry): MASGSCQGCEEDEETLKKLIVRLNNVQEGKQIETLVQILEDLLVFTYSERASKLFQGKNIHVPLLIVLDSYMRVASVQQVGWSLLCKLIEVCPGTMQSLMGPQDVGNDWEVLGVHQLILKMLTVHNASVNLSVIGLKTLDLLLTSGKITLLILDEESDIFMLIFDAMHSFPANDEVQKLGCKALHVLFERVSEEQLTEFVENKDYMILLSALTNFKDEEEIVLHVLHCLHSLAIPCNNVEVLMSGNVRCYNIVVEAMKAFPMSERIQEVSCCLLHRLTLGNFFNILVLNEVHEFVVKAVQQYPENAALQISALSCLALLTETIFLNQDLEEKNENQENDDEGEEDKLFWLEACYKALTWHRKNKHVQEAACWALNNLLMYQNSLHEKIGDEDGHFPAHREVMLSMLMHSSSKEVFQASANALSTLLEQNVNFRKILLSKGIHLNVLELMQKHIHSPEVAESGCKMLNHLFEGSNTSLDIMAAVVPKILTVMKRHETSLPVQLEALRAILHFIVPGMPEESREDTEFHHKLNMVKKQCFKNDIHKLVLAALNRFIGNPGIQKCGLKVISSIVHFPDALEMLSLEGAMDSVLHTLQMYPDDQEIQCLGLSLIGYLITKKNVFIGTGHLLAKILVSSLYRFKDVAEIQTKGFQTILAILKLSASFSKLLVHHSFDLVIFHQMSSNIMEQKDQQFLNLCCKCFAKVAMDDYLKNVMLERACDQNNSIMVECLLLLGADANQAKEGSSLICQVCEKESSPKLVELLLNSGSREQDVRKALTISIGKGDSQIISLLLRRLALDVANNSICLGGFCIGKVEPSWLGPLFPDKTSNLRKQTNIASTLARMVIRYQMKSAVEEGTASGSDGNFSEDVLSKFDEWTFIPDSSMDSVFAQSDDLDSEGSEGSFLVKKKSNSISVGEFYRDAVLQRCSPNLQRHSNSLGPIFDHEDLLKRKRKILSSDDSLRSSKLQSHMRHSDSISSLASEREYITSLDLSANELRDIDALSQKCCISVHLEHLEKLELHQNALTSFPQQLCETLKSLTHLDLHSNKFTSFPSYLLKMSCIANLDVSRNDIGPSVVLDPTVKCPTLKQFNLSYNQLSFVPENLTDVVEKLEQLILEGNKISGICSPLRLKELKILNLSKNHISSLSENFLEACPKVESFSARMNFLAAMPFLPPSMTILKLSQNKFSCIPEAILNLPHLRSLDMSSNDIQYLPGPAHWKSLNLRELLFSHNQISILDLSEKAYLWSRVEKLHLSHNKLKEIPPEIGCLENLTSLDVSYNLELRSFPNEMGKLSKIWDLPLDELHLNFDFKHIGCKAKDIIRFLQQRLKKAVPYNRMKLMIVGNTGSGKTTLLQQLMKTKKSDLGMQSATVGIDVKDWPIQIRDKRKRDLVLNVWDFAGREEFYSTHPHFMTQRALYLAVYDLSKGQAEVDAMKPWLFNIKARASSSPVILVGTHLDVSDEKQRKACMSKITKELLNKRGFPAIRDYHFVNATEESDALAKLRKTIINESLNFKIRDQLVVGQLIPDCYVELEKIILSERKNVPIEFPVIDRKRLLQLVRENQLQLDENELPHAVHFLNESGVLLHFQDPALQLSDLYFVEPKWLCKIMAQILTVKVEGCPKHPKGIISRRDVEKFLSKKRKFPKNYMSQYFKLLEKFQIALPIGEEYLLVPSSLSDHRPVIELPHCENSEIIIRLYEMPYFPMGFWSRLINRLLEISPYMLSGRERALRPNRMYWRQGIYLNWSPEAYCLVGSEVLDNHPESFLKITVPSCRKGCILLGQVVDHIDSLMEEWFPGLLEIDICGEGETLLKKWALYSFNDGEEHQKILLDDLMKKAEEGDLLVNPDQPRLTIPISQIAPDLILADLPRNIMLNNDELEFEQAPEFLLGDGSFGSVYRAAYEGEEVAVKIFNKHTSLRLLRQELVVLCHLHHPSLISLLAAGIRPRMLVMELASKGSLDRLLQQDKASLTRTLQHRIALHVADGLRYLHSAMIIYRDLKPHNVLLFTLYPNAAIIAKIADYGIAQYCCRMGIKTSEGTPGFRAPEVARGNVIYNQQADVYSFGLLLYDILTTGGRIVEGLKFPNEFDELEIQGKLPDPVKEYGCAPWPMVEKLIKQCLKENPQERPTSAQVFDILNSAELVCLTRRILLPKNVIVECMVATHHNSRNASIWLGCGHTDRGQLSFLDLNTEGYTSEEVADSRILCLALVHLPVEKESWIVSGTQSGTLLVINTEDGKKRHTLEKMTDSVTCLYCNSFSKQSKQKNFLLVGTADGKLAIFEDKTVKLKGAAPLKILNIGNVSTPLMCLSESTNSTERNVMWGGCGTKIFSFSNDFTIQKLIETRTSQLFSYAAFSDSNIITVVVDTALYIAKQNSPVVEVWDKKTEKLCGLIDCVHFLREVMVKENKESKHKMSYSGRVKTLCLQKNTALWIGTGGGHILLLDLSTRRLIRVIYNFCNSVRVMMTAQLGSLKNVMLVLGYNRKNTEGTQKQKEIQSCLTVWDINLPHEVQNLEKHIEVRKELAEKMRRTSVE
# TEST PROTOCOL: pS935 LRRK2 Cell Assay (HTRF, phospho-LRRK2 Ser935)
# STATED CONDITIONS: LRRK2 Inhibition, Table 8, 2 hours compound incubation
pIC50: −log10 of the molar value.
QUANTITY KIND: pIC50

>>> meas_value("C[C@@H]1C[C@H](n2c(C3CCN(S(C)(=O)=O)CC3)nc3cnc4ccc(C#N)cc4c32)CCO1")
6.26
>>> meas_value("C[C@@H]1C[C@H](n2c(C3CC(=O)N(CC4CC4)C3)nc3cnc4ccc(C#N)cc4c32)CCO1 (mixture of isomers)")
6.74
>>> meas_value("Cc1nc2ccc(C#N)cc2c2c1nc(CC(=O)NCC1CC1)n2[C@@H]1CCO[C@H](C)C1")
5.17
>>> meas_value("C[C@@H]1C[C@H](n2c(CC(=O)Nc3ccnnc3)nc3cnc4ccc(C#N)cc4c32)CCO1")
6.96
>>> meas_value("C[C@@H]1C[C@H](n2c(CC(=O)NCC3(C)CC3)nc3cnc4ccc(C#N)cc4c32)CCO1")
7.65
>>> meas_value("C[C@@H]1C[C@H](n2c(CC(=O)Nc3cc(C4CCC4)no3)nc3cnc4ccc(C#N)cc4c32)CCO1")
7.80
>>> meas_value("C[C@@H]1C[C@H](n2c(CNC(=O)C3CC3)nc3cnc4ccc(C#N)cc4c32)CCO1")
6.32
>>> meas_value("C[C@@H]1C[C@H](n2c(CC(=O)Nc3ncc(C(F)(F)F)cn3)nc3cnc4ccc(C#N)cc4c32)CCO1")
8.41
>>> meas_value("C[C@@H]1C[C@H](n2c(CC(=O)NCc3ncccn3)nc3cnc4ccc(Cl)cc4c32)CCO1")
7.75
>>> meas_value("C[C@@H]1C[C@H](n2c(C3CC(=O)N(C4CCOCC4)C3)nc3cnc4ccc(C#N)cc4c32)CCO1 (mixture of isomers)")
6.50
>>> meas_value("Cc1nn(C)cc1NC(=O)Cc1nc2cnc3ccc(C#N)cc3c2n1[C@@H]1CCO[C@H](C)C1")
7.87
>>> meas_value("COc1ncc(NC(=O)Cc2nc3cnc4ccc(C#N)cc4c3n2[C@@H]2CCO[C@H](C)C2)c(C2CC2)n1")
8.70
>>> meas_value("C[C@@H]1C[C@H](n2c(C3CC(=O)N(Cc4ccccn4)C3)nc3cnc4ccc(C#N)cc4c32)CCO1 (mixture of isomers)")
7.05
>>> meas_value("C[C@@H]1C[C@H](n2c(CC(=O)NC3(C#N)CC3)nc3cnc4ccc(C#N)cc4c32)CCO1")
6.73
>>> meas_value("C[C@@H]1C[C@H](n2c(CC(=O)Nc3ccc(OC(F)F)nc3)nc3cnc4ccc(C#N)cc4c32)CCO1")
8.01
>>> meas_value("COc1nccc(F)c1NC(=O)Cc1nc2cnc3ccc(C#N)cc3c2n1[C@@H]1CCO[C@H](C)C1")
8.07
>>> meas_value("COCCNC(=O)Cc1nc2cnc3ccc(Cl)cc3c2n1[C@@H]1CCO[C@H](C)C1")
7.82
>>> meas_value("C[C@@H]1C[C@H](n2c(CC(=O)Nc3cc(C4CC4)on3)nc3cnc4ccc(C#N)cc4c32)CCO1")
8.32
>>> meas_value("C[C@@H]1C[C@H](n2c(CC(=O)Nc3ccnn3C)nc3cnc4ccc(C#N)cc4c32)CCO1")
7.84
>>> meas_value("Cc1cc(F)ncc1NC(=O)Cc1nc2cnc3ccc(C#N)cc3c2n1[C@@H]1CCO[C@H](C)C1")
7.95
>>> meas_value("C[C@@H]1C[C@H](n2c([C@@H]3CCN(S(=O)(=O)C4CC4)C3)nc3cnc4ccc(C#N)cc4c32)CCO1")
6.17
>>> meas_value("C[C@@H]1C[C@H](n2c(CN3CCCS3(=O)=O)nc3cnc4ccc(C#N)cc4c32)CCO1")
6.23
>>> meas_value("COc1cc(C2CC2)ncc1NC(=O)Cc1nc2cnc3ccc(C#N)cc3c2n1[C@@H]1CCO[C@H](C)C1")
8.40
>>> meas_value("CCNC(=O)Cc1nc2cnc3ccc(C#N)cc3c2n1[C@@H]1CCO[C@H](C)C1")
7.31
>>> meas_value("COc1ncc(NC(=O)Cc2nc3cnc4ccc(C#N)cc4c3n2[C@@H]2CCO[C@H](C)C2)cn1")
7.74
>>> meas_value("C[C@@H]1C[C@H](n2c(CC(=O)Nc3cccnc3C#N)nc3cnc4ccc(C#N)cc4c32)CCO1")
7.90
>>> meas_value("C[C@@H]1C[C@H](n2c(CC(=O)Nc3cccn(CC(C)(C)O)c3=O)nc3cnc4ccc(C#N)cc4c32)CCO1")
7.57
>>> meas_value("C[C@@H]1C[C@H](n2c(CC(=O)NCC3CC3)nc3cnc4ccc(Cl)cc4c32)CCO1")
7.96
>>> meas_value("C[C@@H]1C[C@H](n2c(CC(=O)N[C@H](C)c3ccccn3)nc3cnc4ccc(C#N)cc4c32)CCO1")
7.73

---

# TEST SYSTEM: wild type LRRK2 overexpressed in recombinant HEK-293T cells (Homo sapiens)
# Construct: host or cells: HEK293T (transient transfection with pCMV-LRRK2 WT plasmid)
# TEST PROTOCOL: pS935 LRRK2 Cell Assay (HTRF, phospho-LRRK2 Ser935)
# Format: cell-based
# STATED CONDITIONS: LRRK2 Inhibition, Table 8, 2 hours compound incubation
# Procedure: A 2× detection solution was prepared: Tb-pERM (pLRRKtide) antibody (final concentration 0.25 nM) and EDTA (final concentration 10 mM) in TR-FRET dilution buffer. 10 μL 2× detection solution was dispensed to each well in assay plate to stop kinase reaction by Multidrop. Assay plate was spun at 1,000 rpm for 1 min and incubate for 30 min at 23° C. Assay plate was then read on Envision configured for LanthaScreen® TR-FRET. pS935 LRRK2 Cell Assay […]
pIC50: −log10 of the molar value.
QUANTITY KIND: pIC50

>>> meas_value("C[C@@H]1C[C@H](n2c(CN3CCOCC3=O)nc3cnc4ccc(C#N)cc4c32)CCO1 [Compound 78]")
6.00
>>> meas_value("COc1nc(C2CC2)ncc1NC(=O)Cc1nc2cnc3ccc(C#N)cc3c2n1[C@@H]1CCO[C@H](C)C1 [Compound 255]")
8.41
>>> meas_value("Cc1ccncc1NC(=O)Cc1nc2cnc3ccc(C#N)cc3c2n1[C@@H]1CCO[C@H](C)C1 [Compound 292]")
8.08
>>> meas_value("C[C@@H]1C[C@H](n2c(CC(=O)NC3CC3(C)C)nc3cnc4ccc(C#N)cc4c32)CCO1 (some centres unmarked) [Compound 252]")
7.74
>>> meas_value("C[C@@H]1C[C@H](n2c(CC(=O)NCc3ccncc3)nc3cnc4ccc(C#N)cc4c32)CCO1 [Compound 15]")
7.80
>>> meas_value("C[C@@H]1C[C@H](n2c(CC(=O)Nc3ccc(=O)n(C)c3)nc3cnc4ccc(Cl)cc4c32)CCO1 [Compound 219]")
7.80
>>> meas_value("C[C@@H]1C[C@H](n2c(CC(=O)NC3COC3)nc3cnc4ccc(Cl)cc4c32)CCO1 [Compound 141]")
7.73
>>> meas_value("Cc1cnncc1NC(=O)Cc1nc2cnc3ccc(C#N)cc3c2n1[C@@H]1CCO[C@H](C)C1 [Compound 258]")
7.76
>>> meas_value("CN1CC(n2c(CC(=O)NCC3CC3)nc3cnc4ccc(C#N)cc4c32)CCC1=O (single isomer, unassigned) [Compound 91]")
5.16
>>> meas_value("COc1ccnc(C)c1NC(=O)Cc1nc2cnc3ccc(C#N)cc3c2n1[C@@H]1CCO[C@H](C)C1 [Compound 227]")
7.84
>>> meas_value("COCC1(NC(=O)Cc2nc3cnc4ccc(C#N)cc4c3n2[C@@H]2CCO[C@H](C)C2)CC1 [Compound 276]")
7.07
>>> meas_value("COc1nc(C)ncc1NC(=O)Cc1nc2cnc3ccc(C#N)cc3c2n1[C@@H]1CCO[C@H](C)C1 [Compound 248]")
8.38
>>> meas_value("C[C@@H]1C[C@H](n2c(C3CC(=O)N(C)C3)nc3cnc4ccc(C#N)cc4c32)CCO1 (mixture of isomers) [Compound 53]")
6.18
>>> meas_value("Cc1ncccc1NC(=O)Cc1nc2cnc3ccc(C#N)cc3c2n1[C@@H]1CCO[C@H](C)C1 [Compound 316]")
8.17
>>> meas_value("CC(=O)N1CCC(c2nc3cnc4ccc(C#N)cc4c3n2[C@@H]2CCO[C@H](C)C2)CC1 [Compound 116]")
6.46
>>> meas_value("C[C@@H]1C[C@H](n2c(C3CCN(S(=O)(=O)c4cnn(C)c4)CC3)nc3cnc4ccc(C#N)cc4c32)CCO1 [Compound 121]")
6.31
>>> meas_value("C[C@@H]1C[C@H](n2c(C3CC(=O)N([C@H](C)C4CC4)C3)nc3cnc4ccc(C#N)cc4c32)CCO1 (some centres unmarked) [Compound 34]")
6.56
>>> meas_value("C[C@@H]1C[C@H](n2c(CC(=O)N[C@@H]3C[C@H]3F)nc3cnc4ccc(C#N)cc4c32)CCO1 [Compound 277]")
7.28
>>> meas_value("C[C@@H]1C[C@H](n2c(C3CC(=O)N(c4cnn(C)c4)C3)nc3cnc4ccc(C#N)cc4c32)CCO1 (mixture of isomers) [Compound 59]")
6.93
>>> meas_value("C[C@@H]1C[C@H](n2c(CC(=O)Nc3ccno3)nc3cnc4ccc(Cl)cc4c32)CCO1 [Compound 351]")
7.98
>>> meas_value("C[C@@H]1C[C@H](n2c(CC(=O)Nc3cccnc3F)nc3cnc4ccc(C#N)cc4c32)CCO1 [Compound 317]")
8.39
>>> meas_value("C[C@@H]1C[C@H](n2c(CC(=O)NCC3CCCCO3)nc3cnc4ccc(C#N)cc4c32)CCO1 (some centres unmarked) [Compound 143]")
7.94
>>> meas_value("C[C@@H]1C[C@H](n2c(CC(=O)Nc3cnn(C)c3CO)nc3cnc4ccc(C#N)cc4c32)CCO1 [Compound 158]")
6.57
>>> meas_value("C[C@@H]1C[C@H](n2c(CC(=O)Nc3cnc(C(F)F)nc3)nc3cnc4ccc(C#N)cc4c32)CCO1 [Compound 254]")
7.56
>>> meas_value("N#Cc1ccc2ncc3nc(CC(=O)NCC4CC4)n(C4CCOCC4)c3c2c1 [Compound 343]")
6.87
>>> meas_value("C[C@@H]1C[C@H](n2c(C3CC(=O)N(Cc4cccnc4)C3)nc3cnc4ccc(C#N)cc4c32)CCO1 (single isomer, unassigned) [Compound 30]")
7.38
>>> meas_value("C[C@@H]1C[C@H](n2c(C3CCC(=O)N(CC4CC4)C3)nc3cnc4ccc(C#N)cc4c32)CCO1 (some centres unmarked) [Compound 50]")
6.06
>>> meas_value("Cc1ncc(NC(=O)Cc2nc3cnc4ccc(C#N)cc4c3n2[C@@H]2CCO[C@H](C)C2)cn1 [Compound 329]")
7.78
>>> meas_value("Cc1cc(NC(=O)Cc2nc3cnc4ccc(C#N)cc4c3n2[C@@H]2CCO[C@H](C)C2)c(=O)n(C)n1 [Compound 214]")
7.99
